Provenance of the data: patent US5834461A

system name: oxytocin receptors (rat uterus membranes) (Rattus norvegicus, UniProt P70536)
Construct: The resulting pellet containing the oxytocin receptors is resuspended; from tissue; host or cells: uterus membranes of DES-treated female Sprague-Dawley rats
Sequence (P70536 1-388): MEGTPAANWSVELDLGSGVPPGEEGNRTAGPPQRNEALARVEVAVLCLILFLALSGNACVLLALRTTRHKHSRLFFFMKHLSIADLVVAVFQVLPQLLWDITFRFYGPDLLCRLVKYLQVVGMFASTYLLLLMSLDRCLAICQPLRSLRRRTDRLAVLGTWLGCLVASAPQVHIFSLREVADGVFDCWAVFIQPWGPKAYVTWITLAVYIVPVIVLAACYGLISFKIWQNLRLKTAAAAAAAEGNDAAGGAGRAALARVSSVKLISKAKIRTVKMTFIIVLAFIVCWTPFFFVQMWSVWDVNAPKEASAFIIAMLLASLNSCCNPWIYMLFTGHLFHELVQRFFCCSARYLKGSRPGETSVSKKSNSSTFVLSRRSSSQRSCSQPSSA
assay text: Oxytocin Receptor Binding
Design: species or system female Sprague-Dawley rats
run parameters: dose 10 μM

compound	inhibition at 10 µM / %
COc1cc(C(=O)N2Cc3ccccc3Cc3ccccc32)ccc1NC(=O)c1cc(F)ccc1C	97
O=C(Nc1ccc(C(=O)N2Cc3ccccc3Cc3ccccc32)cc1)C1CC=CCC1 (centres unmarked)	99
Cc1nc2c(s1)CCN(C(=O)c1ccc(NC(=O)c3cc(F)ccc3C)cc1)c1ccccc1-2	86
COc1cc(C(=O)N2Cc3ccccc3Cc3ccccc32)ccc1NC(=O)c1ccc(Cl)cc1Cl	94
Cc1ccccc1C(=O)Nc1c(C)cc(C(=O)N2Cc3ccccc3Cc3ccccc32)cc1C	18
Cc1ccccc1C(=O)Nc1ccc(C(=O)N2CCc3cnoc3-c3ccccc32)cc1	2
Cc1ccc(F)cc1C(=O)Nc1ccc(C(=O)N2CCc3c[nH]nc3-c3ccccc32)c(Cl)c1	95
O=C(Nc1ccc(C(=O)N2Cc3ccccc3Cc3ccccc32)cc1)c1cc(Cl)cc(Cl)c1	77
Cc1ccccc1C(=O)Nc1ccc(C(=O)N2CCc3cn(C)nc3-c3ccccc32)cc1	96
Cc1ccccc1C(=O)Nc1ccc(C(=O)N2Cc3ccccc3Cc3ccccc32)cc1	73
O=C(c1ccc(NS(=O)(=O)c2ccccc2Cl)cc1)N1Cc2ccccc2Cc2ccccc21	33
COc1cc(C(=O)N2Cc3ccccc3Cc3ccccc32)ccc1NC(=O)c1ccccc1C	97
Cc1ccccc1C(=O)Nc1ccc(C(=O)N2Cc3ccccc3-c3ccccc32)cc1	90
Cc1c(F)cccc1C(=O)Nc1ccc(C(=O)N2Cc3ccccc3Cc3ccccc32)cc1	95
Cc1ccccc1C(=O)Nc1ccc(C(=O)N2CCc3c[nH]nc3-c3ccccc32)cc1	99
CN(C)CC(=O)Nc1ccc(C(=O)N2Cc3ccccc3Cc3ccccc32)cc1	78
Cc1c(F)cccc1C(=O)Nc1ccc(C(=O)N2Cc3ccccc3Cc3ccccc32)cc1Cl	55

====

system name: oxytocin receptors (rat uterus membranes) (Rattus norvegicus)
Construct: The resulting pellet containing the oxytocin receptors is resuspended; from tissue; host or cells: uterus membranes of DES-treated female Sprague-Dawley rats
Sequence (P70536 1-388): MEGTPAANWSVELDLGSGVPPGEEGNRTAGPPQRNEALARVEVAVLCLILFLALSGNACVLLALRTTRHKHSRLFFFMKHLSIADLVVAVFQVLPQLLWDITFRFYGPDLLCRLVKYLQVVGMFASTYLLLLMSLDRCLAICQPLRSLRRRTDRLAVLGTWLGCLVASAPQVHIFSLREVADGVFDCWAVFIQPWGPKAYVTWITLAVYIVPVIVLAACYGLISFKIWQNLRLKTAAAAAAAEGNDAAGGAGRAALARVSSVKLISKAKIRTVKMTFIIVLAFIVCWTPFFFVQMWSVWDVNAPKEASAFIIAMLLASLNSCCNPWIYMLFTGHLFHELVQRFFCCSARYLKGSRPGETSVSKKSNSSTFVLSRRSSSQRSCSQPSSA
assay text: Oxytocin Receptor Binding
Set-up: species or system female Sprague-Dawley rats
run parameters: dose 10 μM
So basically: inhibition at 10 µM at 50% or higher? That is condition met. Lower than 50%? That is condition not met.

compound	discrete label
O=C(Nc1ccc(C(=O)N2Cc3ccccc3Cc3ccccc32)c(Cl)c1)c1ccc(Cl)cc1Cl [Example 256]	condition not met
Cc1ccc(F)cc1C(=O)Nc1ccc(C(=O)N2CCc3c[nH]nc3-c3ccccc32)cc1 [Example 584]	condition met
O=C(Nc1ccc(C(=O)N2Cc3ccccc3Cc3ccccc32)cc1)c1ccc(Cl)c(Cl)c1 [Example 250]	condition not met
Cc1ccccc1C(=O)Nc1ccc(C(=O)N2Cc3ccccc3Cc3ccccc32)c(Cl)c1 [Example 260]	condition not met
Cc1cccc(C(=O)Nc2ccc(C(=O)N3Cc4ccccc4Cc4ccccc43)cc2)c1C [Example 11]	condition met
Cc1ncc2c(n1)-c1ccccc1N(C(=O)c1ccc(NC(=O)c3ccccc3C)cc1)CC2 [Example 416]	condition not met

====

System: vasopressin V2
assay text: Vasopressin V2 Antagonist Activity in Conscious Hydrated Rats (diuretic effect)
Assay type: in vivo, normal Sprague-Dawley rats
run parameters: 10 mg/kg orally, AVP 0.4 μg/kg i.p.

compound	Urine Volume [ml/4 hrs.]
Cc1ccccc1C(=O)Nc1ccc(C(=O)N2Cc3sccc3Cc3ccccc32)cc1 [Example 458]	13.5
COc1cc(C(=O)N2Cc3ccccc3Cc3ccccc32)ccc1NC(=O)c1cc(F)ccc1C [Example 261]	3.8
O=C(Nc1ccc(C(=O)N2Cc3ccccc3Cc3ccccc32)cc1)c1c(Cl)cccc1Cl [Example 252]	7.5
CSc1ccccc1C(=O)Nc1ccc(C(=O)N2Cc3ccccc3Cc3ccccc32)cc1 [Example 61]	9.3
Cc1cccc(NC(=O)c2ccc(C(=O)N3Cc4ccccc4Cc4ccccc43)cc2)c1C [Example 124]	5.5
O=C(Nc1ccc(C(=O)N2Cc3ccccc3Cc3ccccc32)cc1)c1ccc(Cl)cc1Cl [Example 10]	7.1
Cc1ccccc1COC(=O)c1ccc(C(=O)N2Cc3ccccc3Cc3ccccc32)cc1 [Example 266]	4.3

====

system name: vasopressin V1 receptor (rat liver plasma membranes) (Rattus norvegicus, UniProt P30560)
Sequence (P30560 whole entry): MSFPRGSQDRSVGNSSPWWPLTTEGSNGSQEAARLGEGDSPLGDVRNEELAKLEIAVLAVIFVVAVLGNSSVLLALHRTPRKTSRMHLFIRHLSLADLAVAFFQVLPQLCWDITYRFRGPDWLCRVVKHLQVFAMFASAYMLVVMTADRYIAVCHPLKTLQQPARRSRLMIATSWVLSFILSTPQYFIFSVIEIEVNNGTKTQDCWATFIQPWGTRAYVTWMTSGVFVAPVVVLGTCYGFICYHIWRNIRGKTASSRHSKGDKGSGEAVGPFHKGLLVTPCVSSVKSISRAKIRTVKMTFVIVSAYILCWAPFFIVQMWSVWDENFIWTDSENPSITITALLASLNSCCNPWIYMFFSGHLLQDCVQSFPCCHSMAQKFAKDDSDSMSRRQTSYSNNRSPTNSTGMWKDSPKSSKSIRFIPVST
assay text: Binding Assay to Rat Hepatic V1 Receptors
run parameters: 2 h; 10 μM; rat hepatic; read-out: V1, % at concentration in brackets
Protocol: Rat liver plasma membranes expressing the vasopressin V1 receptor subtypes are isolated by sucrose density gradient according to the method described by Lesko et al., (1973). […] For test compounds, these are solubilized in 50% dimethylsulfoxide (DMSO) and added in 20.0 μl volume to a final incubation volume of 200 μl. […] The radioactivity trapped on the filter disk by the ligand-receptor complex is assessed by liquid scintillation counting in a Packard LS Counter, with an efficiency of 65% for tritium.

smiles str	unit symbol	inhibition at 10 µM
O=C(c1ccc(NS(=O)(=O)c2ccccc2Cl)cc1)N1Cc2ccccc2Cc2ccccc21	%	87
O=C(Nc1ccc(C(=O)N2Cc3ccccc3Cc3ccccc32)cc1)c1cc(Cl)cc(Cl)c1Cl	%	61
O=C(Nc1ccc(C(=O)N2Cc3ccccc3Cc3ccccc32)cc1)c1ccc(Cl)c(Cl)c1	%	62
Cc1ccccc1C(=O)Nc1ccc(C(=O)N2CCc3cnoc3-c3ccccc32)cc1	%	99

====

This section presents molecules with their documented Time of max % inhibition values.
Test system: vasopressin V1
assay text: Vasopressin V1 Antagonist Activity in Conscious Rats (vasopressin vasopressor response)
Type: in vivo, rat (spontaneously hypertensive rats)
run parameters: 10 mg/kg i.v.
recorded metric: Time of max % inhibition (min)

molecule	system name	unit symbol	result number
Cc1ccccc1C(=O)Nc1ccc(C(=O)N2Cc3ccccc3Cc3cc(Cl)ccc32)cc1 [Example 136]	vasopressin V1	min	30
Cc1ccccc1C(=O)Nc1ccc(C(=O)N2Cc3sccc3Cc3ccccc32)cc1 [Example 458]	vasopressin V1	min	180
O=C(Nc1ccc(C(=O)N2Cc3ccccc3Cc3ccccc32)cc1)C1CC=CCC1 (stereo not drawn) [Example 255]	vasopressin V1	min	60
Cc1ccccc1C(=O)N(C)c1ccc(C(=O)N2Cc3ccccc3Cc3ccccc32)cc1 [Example 167]	vasopressin V1	min	180
COc1cc(C(=O)N2Cc3ccccc3Cc3ccccc32)ccc1NC(=O)c1ccccc1C [Example 257]	vasopressin V1	min	60
O=C(Nc1ccc(C(=O)N2Cc3ccccc3Cc3cc(Cl)ccc32)cc1)c1ccc(Cl)cc1Cl [Example 137]	vasopressin V1	min	30
Cc1ccccc1C(=O)N(CN(C)C)c1ccc(C(=O)N2Cc3ccccc3Cc3ccccc32)cc1 [Example 267]	vasopressin V1	min	120
Cc1cccc(C(=O)Nc2ccc(C(=O)N3Cc4ccccc4Cc4cc(Cl)ccc43)cc2)c1C [Example 138]	vasopressin V1	min	60
COc1cc(C(=O)N2Cc3ccccc3Cc3ccccc32)ccc1NC(=O)c1cc(F)ccc1C [Example 261]	vasopressin V1	min	60
Cc1ccccc1C(=O)Nc1ccc(C(=O)N2CCc3cn(C)nc3-c3ccccc32)cc1 [Example 379]	vasopressin V1	min	300
COc1cc(C(=O)N2Cc3ccccc3Cc3ccccc32)ccc1NC(=O)c1ccc(Cl)cc1Cl [Example 263]	vasopressin V1	min	90
O=C(Nc1ccc(C(=O)N2Cc3ccccc3Sc3ccccc32)cc1)c1ccc(Cl)cc1Cl [Example 449]	vasopressin V1	min	90
